Data provenance is the array DNA melting data of Ke et al. (doi:10.1101/2024.01.08.574731).

Entries and their folding enthalpy values follow.
# Protocol: folding enthalpy; higher = less favourable; fluorescence melt of hairpins on a sequencing array, two-state fit
# Particulars: sodium 0.088 M

Construct sequence: GATCAGCATCCTGATC ((((((....))))))
folding enthalpy, kJ/mol: -136
//
Construct sequence: GCTCGGCGAAAGCTTAGC (((..((....))..)))
folding enthalpy, kJ/mol: -63.9
//
Construct sequence: GCTCGCGAAAGCGAGAGC ((((((....)))..)))
folding enthalpy, kJ/mol: -41.3
//
Construct sequence: GTACTTGGAAACAAGCAC ((.((((....)))).))
folding enthalpy, kJ/mol: -108
//
Construct sequence: GCAACGCGAAAGCCCTGC (((..((....))..)))
folding enthalpy, kJ/mol: -31.9
//
Construct sequence: GTCTTGGGAAACCAAGGC (.(((((....))))).)
folding enthalpy, kJ/mol: -102
//
Construct sequence: GATCTGGGAAACCGGATC ((((.((....)).))))
folding enthalpy, kJ/mol: -187
//
Construct sequence: GGCGATGGAAACGTCGTC (.(((.(....).))).)
folding enthalpy, kJ/mol: -165
//
Construct sequence: GCAGTGCGAAAGCTCAGC ((.(.((....)).).))
folding enthalpy, kJ/mol: -61.6
//
Construct sequence: GCGTGCCCACGC ((((....))))
folding enthalpy, kJ/mol: -111
//
Construct sequence: GCTTCGCGAAAGCGCAGC (((.(((....))).)))
folding enthalpy, kJ/mol: -128
//
Construct sequence: GTGCAAGCGAAAGCTCAC (((..(((....))))))
folding enthalpy, kJ/mol: -56.1
//
Construct sequence: GTGGTGGGAAACCGCTAC ((.(.((....)).).))
folding enthalpy, kJ/mol: -80.9
//
Construct sequence: GTAGTTGAAAAACTAC ((((((....))))))
folding enthalpy, kJ/mol: -129
//
Construct sequence: GAGCATGGAAACGTGCTC (((((.(....).)))))
folding enthalpy, kJ/mol: -198
//
Construct sequence: GTCATCGAAAGATATGAC ((((((....)))..)))
folding enthalpy, kJ/mol: -83.7
//
Construct sequence: GATCAGCAAGCTGATC ((((((....))))))
folding enthalpy, kJ/mol: -138
//
Construct sequence: GATGCGCGAAAGCGGATC (((.(((....))).)))
folding enthalpy, kJ/mol: -128
//
Construct sequence: GTCGTCGGAAACGGTGAC (((..((....))..)))
folding enthalpy, kJ/mol: -100
//
Construct sequence: GTCATACGAAAGTAAGAC (((.(((....))).)))
folding enthalpy, kJ/mol: -107
//
Construct sequence: GGTATCGCGAAAGCGACC (((..(((....))))))
folding enthalpy, kJ/mol: -38
//
Construct sequence: GATCCTGGGAAGGATC ((((((....))))))
folding enthalpy, kJ/mol: -177
//
Construct sequence: GCAGGTGGAAACACCCGC ((.((((....)))).))
folding enthalpy, kJ/mol: -97.8
//
Construct sequence: GATCGACACTTCGATC ((((((....))))))
folding enthalpy, kJ/mol: -203
//
Construct sequence: GATCACTCTAGTGATC ((((((....))))))
folding enthalpy, kJ/mol: -169
//
Construct sequence: GTTTGCGAAAGCATAAC ((((((....))).)))
folding enthalpy, kJ/mol: -72.5
//
Construct sequence: GGCCCCGGAAACAGGGCC (((((.(....).)))))
folding enthalpy, kJ/mol: -183
//
Construct sequence: GCGTCTCGAAAGAGCGC (((.(((....))))))
folding enthalpy, kJ/mol: -130
//
Construct sequence: GGTTCGCGAAAGCGTACC (((.(((....))).)))
folding enthalpy, kJ/mol: -109
//
Construct sequence: GGTTGTGGAAACACAGTC (..((((....))))..)
folding enthalpy, kJ/mol: -55.2
//
Construct sequence: GATCTCTACTGAGATC ((((((....))))))
folding enthalpy, kJ/mol: -174
//
Construct sequence: GCGGGCGCCGC ((((...))))
folding enthalpy, kJ/mol: -41
//
Construct sequence: GACTTGGAAACAAGTC ((((((....))))))
folding enthalpy, kJ/mol: -161
//
Construct sequence: GACAACGAAAGTTATGTC ((((((....)))..)))
folding enthalpy, kJ/mol: -74.6
//
Construct sequence: GGCGGTCGAAAGACGGCC (((.(((....))).)))
folding enthalpy, kJ/mol: -144
//
Construct sequence: GAAACACGAAAGTGCTTC (((.(((....))).)))
folding enthalpy, kJ/mol: -94.2
//
Construct sequence: GATCTATTATAGATC ((((((...))))))
folding enthalpy, kJ/mol: -140
//
Construct sequence: GGGACGGGAAACCGTCTC (.(((((....))))).)
folding enthalpy, kJ/mol: -84.4
//
Construct sequence: GTTATACGAAAGTAGAAC (((.(((....))).)))
folding enthalpy, kJ/mol: -125
//
Construct sequence: GTGGTGCGAAAGCAACAC (((.(((....))).)))
folding enthalpy, kJ/mol: -121
//
Construct sequence: GCGCCTGGAAACAGGTGC ((.((((....)))).))
folding enthalpy, kJ/mol: -195
//
Construct sequence: GCCAAGCGAAAGCTGAGC ((..(((....)))..))
folding enthalpy, kJ/mol: -64
//
Construct sequence: GGCCGCGAAAGCGGGGCC ((((((....)))..)))
folding enthalpy, kJ/mol: -53.1
//
Construct sequence: GATCTAAGGTTAGATC ((((((....))))))
folding enthalpy, kJ/mol: -132
//
Construct sequence: GATCCCTCTAGGGATC ((((((....))))))
folding enthalpy, kJ/mol: -142
//
Construct sequence: GCCCAGCGAAAGCGAGGC (((..((....))..)))
folding enthalpy, kJ/mol: -86.4
//
Construct sequence: GCGAAGGGAAACCTTTGC ((.((((....)))).))
folding enthalpy, kJ/mol: -145
//
Construct sequence: GAACTGGGAAACTGGTTC ((((..(....)..))))
folding enthalpy, kJ/mol: -108
//
Construct sequence: GGCTGCGGAAACGTAGCC ((((.((....)).))))
folding enthalpy, kJ/mol: -210
//
Construct sequence: GGTTGTGGAAACATAGCC ((.(.((....)).).))
folding enthalpy, kJ/mol: -80
